Data origin: FireProtDB (doi:10.1021/bi00005a026)

B1: Subtilisin-chymotrypsin inhibitor-2A, P01053 (parent)
chain: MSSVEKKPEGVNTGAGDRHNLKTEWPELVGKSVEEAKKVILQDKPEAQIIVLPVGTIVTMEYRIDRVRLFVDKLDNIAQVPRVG

Variants of: B1
stated.conditions: Hordeum vulgare; pH 6.3; Thermal; Fluorescence; phosphate 10 mM; reversible: yes; structure 2CI2; whole UniProt chain shown
Kindly state Tm for each of the entries shown.
# value in °C; strip the unit string

Can you look up the measured Tm of K38A for me? 41.4

Can you look up the measured Tm of I40V for me? 31.8

Can you look up the measured Tm of I50V for me? 48

Can you look up the measured Tm of I49V for me? 39.4

Can you look up the measured Tm of S32A for me? 38.2

Can you look up the measured Tm of L52A for me? 37.5

Can you look up the measured Tm of K44A for me? 40.8

Can you look up the measured Tm of V71A for me? 29.8

Can you look up the measured Tm of L28A for me? 24.1

Can you look up the measured Tm of K38G for me? 35.8

Can you look up the measured Tm of I77V for me? 47.7
